system.name: Aβ1–42 (Homo sapiens, UniProt P05067)
Construct: purchased BioVision K570-100
Sequence (P05067 672-713 limits assumed): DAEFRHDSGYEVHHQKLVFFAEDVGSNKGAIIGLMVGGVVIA
assay.comment: Inhibition of Aβ1-42 self-induced aggregation (BioVision ligand screening kit)
Type: biochemical
run.parameters: µM
Text: Screening Aβ42 ligands that could prevent aggregation is critical for developing potential therapeutic treatments. In BioVision’s Beta-Amyloid 1–42 (Aβ42) Ligand Screening kit, a dye binds to the beta-sheets of an aggregated amyloid peptide resulting in an intense fluorescent product at wave length 450 nm using a BIOLINE ELISA reader. In the presence of an Aβ42 ligand, this reaction is impeded/abolished resulting in a decrease or total loss of fluorescence. […]
reported.metric: IC50 (µM)
The response must be a number in µM with no trailing unit.

## Input Assign IC50 to the following record: CS(=O)(=O)n1cc(/C=C/C(=O)c2ccc(NC(=O)Cc3ccc(Cl)cc3)cc2)c2ccccc21 [Compound 5b]
## Output 2.5

## Input Assign IC50 to the following record: CS(=O)(=O)n1cc(/C=C(\C(=O)N2CCCCC2)c2ccc(Cl)cc2)c2ccccc21 [Compound 4a]
## Output 22.4

## Input Assign IC50 to the following record: CS(=O)(=O)n1cc(/C=N/NC(=O)c2sc(=S)n(-c3ccccc3)c2N)c2ccccc21 [Compound 10b]
## Output 5.16

## Input Assign IC50 to the following record: CS(=O)(=O)n1cc(/C=C/C(=O)c2ccc(NC(=O)CN3CCC(Cc4ccccc4)CC3)cc2)c2ccccc21 [Compound 6b]
## Output 4.94

## Input Assign IC50 to the following record: CS(=O)(=O)n1cc(C=C(C(=O)N2CCC(Cc3ccccc3)CC2)c2ccc(Cl)cc2)c2ccccc21 [Compound 4d]
## Output 8.76

## Input Assign IC50 to the following record: CS(=O)(=O)n1cc(/C=C(/C(=O)Nc2cccnc2)c2ccc(Cl)cc2)c2ccccc21 [Compound 4b]
## Output 13.8

## Input Assign IC50 to the following record: CS(=O)(=O)n1cc(/C=N/NC(=O)Cc2ccc(Cl)cc2)c2ccccc21 [Compound 7c]
## Output 14.9

## Input Assign IC50 to the following record: COc1cc(/C(=C\c2cn(S(C)(=O)=O)c3ccccc23)C(=O)O)cc(OC)c1OC [Compound 3c]
## Output 6.91
